- test-target: EGFR L858R (Homo sapiens (Human), UniProt P00533, L858R)
- Sequence (P00533 25-1210 L858R): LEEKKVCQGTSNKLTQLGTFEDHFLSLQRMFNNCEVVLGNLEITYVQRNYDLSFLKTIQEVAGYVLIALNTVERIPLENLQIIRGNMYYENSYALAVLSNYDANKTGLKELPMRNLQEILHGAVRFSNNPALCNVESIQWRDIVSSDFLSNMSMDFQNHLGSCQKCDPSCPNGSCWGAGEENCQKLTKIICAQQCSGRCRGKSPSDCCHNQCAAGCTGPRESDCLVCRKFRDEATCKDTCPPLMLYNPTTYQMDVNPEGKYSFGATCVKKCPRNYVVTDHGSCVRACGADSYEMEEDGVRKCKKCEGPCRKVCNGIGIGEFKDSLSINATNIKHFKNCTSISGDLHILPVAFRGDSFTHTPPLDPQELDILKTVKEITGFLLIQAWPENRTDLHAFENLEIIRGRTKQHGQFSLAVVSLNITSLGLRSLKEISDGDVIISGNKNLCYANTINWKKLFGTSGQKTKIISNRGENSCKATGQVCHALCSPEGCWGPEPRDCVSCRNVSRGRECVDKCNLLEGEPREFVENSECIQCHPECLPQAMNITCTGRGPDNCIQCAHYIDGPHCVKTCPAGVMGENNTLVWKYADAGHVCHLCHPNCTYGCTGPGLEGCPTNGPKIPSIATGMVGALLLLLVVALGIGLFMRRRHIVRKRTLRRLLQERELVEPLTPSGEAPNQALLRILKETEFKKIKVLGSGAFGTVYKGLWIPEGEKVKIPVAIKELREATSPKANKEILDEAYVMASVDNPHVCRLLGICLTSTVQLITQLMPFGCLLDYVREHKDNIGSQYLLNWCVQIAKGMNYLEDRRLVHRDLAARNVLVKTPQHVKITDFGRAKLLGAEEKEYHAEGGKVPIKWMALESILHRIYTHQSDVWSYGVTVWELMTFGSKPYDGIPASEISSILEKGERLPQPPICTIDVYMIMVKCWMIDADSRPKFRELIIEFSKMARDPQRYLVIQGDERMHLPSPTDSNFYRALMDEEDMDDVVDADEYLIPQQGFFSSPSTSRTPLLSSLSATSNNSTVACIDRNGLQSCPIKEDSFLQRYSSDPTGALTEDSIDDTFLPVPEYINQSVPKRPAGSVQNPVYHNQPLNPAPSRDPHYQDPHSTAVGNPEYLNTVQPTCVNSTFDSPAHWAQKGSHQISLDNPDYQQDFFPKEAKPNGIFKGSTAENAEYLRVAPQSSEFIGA
- test-protocol: Biochemical EGFR inhibition assay, EGFR L858R
- experimental-context: Caliper mobility shift; 1.0 mM ATP or ATP Km; read-out: Enz EGFR_L858R IC50
pIC50: −log10 of the molar value.
recorded-metric: pIC50

# compound, test-target, endpoint-value
records = [
    ("CCn1cc(-c2ncnc3cc(OC)c(NC(=O)c4cnn(CCN(C)C)c4)nc23)c(-c2ccccc2)n1 [Example 319]", "EGFR L858R (Homo sapiens (Human), UniProt P00533, L858R)", 8.96),
    ("COc1cc2ncnc(-c3cn(C)nc3-c3ccccc3)c2cc1NC(=O)c1ccncc1 [Example 351]", "EGFR L858R (Homo sapiens (Human), UniProt P00533, L858R)", 8.51),
    ("CCOc1cc2ncnc(-c3cn(C)nc3-c3ccccc3)c2nc1N1CC2(COC2)C1 [Example 175]", "EGFR L858R (Homo sapiens (Human), UniProt P00533, L858R)", 8.80),
    ("CCn1cc(-c2ncnc3cc(OC)c(NC(=O)C45CC(C4)C5)nc23)c(-c2ccccc2)n1 [Example 315]", "EGFR L858R (Homo sapiens (Human), UniProt P00533, L858R)", 8.77),
    ("COc1cc2ncnc(-c3cn(C)nc3-c3ccccc3)c2cc1NC(=O)C(C)F (stereo not shown) [Example 221]", "EGFR L858R (Homo sapiens (Human), UniProt P00533, L858R)", 8.74),
    ("COc1cc2ncnc(-c3cn(C)nc3-c3ccccc3)c2cc1NC(=O)[C@H]1CCN1C (single isomer, unassigned) [Example 253]", "EGFR L858R (Homo sapiens (Human), UniProt P00533, L858R)", 8.62),
    ("COc1cc2ncnc(-c3cn(C)nc3-c3ccccc3)c2cc1-c1cn(C)nc1C [Example 150]", "EGFR L858R (Homo sapiens (Human), UniProt P00533, L858R)", 8.66),
]
